Answer each item with its documented melting point.

Using the record for `Cc1cccc(C#Cc2cccc(Br)c2)n1` , report its melting point.
60 to 61 °C

Can you share its melting point? I mean this compound: `COC(=O)c1cc(Cl)cc(C(F)(F)F)n1`
62 to 63 °C

Fill blank: measured melting point of the compound `CN1CCCC1=NC(=O)Nc1cccc(Br)c1` is ____.
138 to 149 °C

Requested read-out: melting point. Entry: `CCCCOC(=O)COc1ccc(C(=O)Nc2ccccc2Sc2ccc(Cl)cc2-c2nnn[nH]2)cc1`
156 to 157 °C

# melting point lookup, item `CN(C)c1cc(-n2nc(N(C)C)n(C)c2=O)c(F)cc1C#N`
109 to 110 °C

May I ask what melting point has been recorded for `COc1ccc(-n2nc(C(F)(F)F)cc2-c2ccc(S(C)(=O)=O)cc2)cc1F` ?
178 to 180 °C

What value of melting point has been recorded for this entry: Cc1ccccc1C1c2ccccc2S(=O)(=O)N1C (single isomer, unassigned; (+))
152 °C

For the compound shown here, `CN1CCN(c2cc(Cl)cc3c2c(=O)n(Cc2ccccc2O)c(=O)n3Cc2ccccc2)CC1` , give the reported melting point.
130 to 132 °C

Suppose we examine the compound COc1ccc(C2=NN(CCCCCCN)C(=O)[C@H]3CC=CC[C@@H]23)cc1OC (relative stereo) ; what melting point value has been reported?
141 to 143 °C

====

experimental-endpoint: melting point

Fill blank: measured melting point of the compound `O=C1N=NC(=O)c2c1[nH]c1cccc(Br)c21` is ____.
> 260 °C

I would be grateful if you could share the reported melting point for `O=C(c1ccc(-c2cccc3ccccc23)cc1)N1Cc2cccn2Cc2ccccc21` .
170 to 171 °C

Could you share which melting point value was measured for CC12CCC3(CC1CCC1C2CCC2(C)C1CC(O)C2NC=O)OCCO3 (configuration not stated) ?
277 to 280 °C

Which value of melting point has been reported for `COc1cc(N2CCC(N3CCN(C)CC3)CC2)ccc1Nc1ncc2ccc(-c3cccc(S(=O)(=O)NC(C)(C)C)c3)n2n1` in the records?
214 to 216 °C

Given the entry `Cc1cc(-c2nc3cccnn3c2-c2ccnc(NC(=O)NCC(C)C)c2)ccc1F` , report its measured melting point.
213 to 214 °C

Sample `CS(=O)(=O)c1ccc(Oc2ccc([N+](=O)[O-])cc2C#N)cc1` — what was its melting point?
205 to 206 °C

Reported melting point, compound `COC(=O)Cn1c(C(=O)Nc2nc(-c3cc(OC)c(Cl)cc3OC)c(CCC3CCCCC3)s2)c(C)c2cc(C)ccc21` : ____
166 to 168 °C

Requested field: melting point. Item: CCCCCCCCCCCCCC(=O)OCC1OC(n2cc(F)c(=O)n(C(=O)c3ccc(C)cc3)c2=O)CC1OC(=O)CCCCCCCCCCCCC (configuration not stated)
76 to 77 °C

Could you share which melting point value was measured for `CCOCc1nc2c(N)nc3cc(-c4ccc(F)c(F)c4)cnc3c2n1CC(C)(C)O` ?
193 to 195 °C

Consider the compound shown here: `COC1(c2nc(Sc3ccc(/C(C)=N/O)cc3)cs2)CCOCC1` What is its recorded melting point?
89 °C

Name the recorded melting point for COc1ccc(Cl)cc1NC(=O)[C@H]1[C@H](c2ccc(S(N)(=O)=O)cc2)C12CCCCC2 (relative stereo) .
118 to 121 °C

Give the measured melting point of `Nc1cc(SCc2ccccc2)ccc1[N+](=O)[O-]` .
113 to 115 °C

Any idea what its melting point is? The compound is O=C1C(CCO)Oc2cc(F)ccc2N1Cc1ccccc1[N+](=O)[O-] (configuration not stated)
123 to 124 °C

What measured melting point goes with `CCn1c2cc(C=O)ccc2c2ccc3ccccc3c21` ?
138 to 139 °C

If you can, please state the reported melting point value of `C[C@@H](Nc1ncnc2cc(F)c([N+](=O)[O-])cc12)c1ccccc1` .
203 °C

If you can, please state the reported melting point value of `C=Cc1cc(OS(=O)(=O)c2ccc(C)cc2)c(OC)cc1C#N` .
149 to 150 °C

State the recorded melting point for this entry: `COc1nc2c(S(=O)(=O)c3ccccc3)c(SC)nn2c(N2CCN(C)CC2)c1C`
207 to 208 °C

I would be grateful if you could share the reported melting point for `Cc1ccc([N+](=O)[O-])c(C=C2C(=O)NC(=O)N2C)c1` .
261 to 262 °C

I would be grateful if you could share the reported melting point for `CCOC(=O)N1CCC(Nc2nc3cncnc3n2Cc2ccco2)CC1` .
172 °C

Suppose we examine the compound CCOC(=O)c1cccc2c1CCC2C#N (configuration not stated) ; what melting point value has been reported?
93 to 95.5 °C

# lookup: melting point of `COc1ccccc1N1CCN(CCCNC(=O)c2cccc3c(=O)c(C)c(C4(C)CCCCC4)oc23)CC1`
120 to 124 °C

What does the data say about its melting point? Entry: OC(c1cccc(F)c1)C1CCCCN1 (configuration not stated)
146 to 148 °C

I'd like to know its melting point. The compound in question is CC(C)(C)OC(=O)N1CCN2C(=O)N(c3cc(Cl)cc(Cl)c3)C(=O)C2C1 (configuration not stated)
60.2 °C

Can you look up the measured melting point of CC(c1ccccc1OCCCC(=O)O)N(c1cc(F)ccc1F)S(=O)(=O)c1ccc(Cl)cc1 (configuration not stated) for me?
141 to 142 °C

Quick one: melting point of CCOC(=O)C(C)Oc1ncn(-c2ccccc2)n1 (configuration not stated) ?
88 to 89 °C

I am curious: what melting point value has been reported for `CCOC(=O)c1nc2c(=O)[nH]c3ccc(-n4ccnc4)cc3n2c1C` ?
> 250 °C

Can you share its melting point? I mean this compound: CNc1nc(-c2cccc(NC(=O)c3ccc(S(C)=O)cc3)c2)c2cc(OC)c(OC)cc2n1 (configuration not stated)
246 to 248 °C

Would you mind telling me what melting point value was observed for `CS(=O)(=O)c1ccc(-c2cnn(-c3ccc(F)cc3)c(=O)c2Cc2cccc(F)c2)cc1` ?
176 to 178 °C

Entry under review: CCC(C(=O)c1ccc(Cl)cc1)n1ncn(-c2ccc(N3CCN(C(=O)Cc4ccccc4)CC3)cc2)c1=O (configuration not stated) . Reported melting point?
172 °C

Need melting point, item `Cn1c(SCCCN2CCc3ccc(C(=O)c4ccccc4)cc3C2)nnc1-c1ccccc1`
146 to 152 °C

Please look up its melting point: COC(=O)CC(C#N)c1ccc(OC)c(OC2CCCC2)c1 (configuration not stated)
69 to 71 °C

Bench note: what melting point did CCN(CC)CCC(=O)NC1c2ccccc2-c2[nH]c(=O)c3nccn3c21 (configuration not stated) show?
260 °C

Look up melting point: CN1CC2CN(C(=O)N3c4ccccc4NC(=O)c4c3c(Cl)cn4C)CC2C1 (configuration not stated)
> 280 °C

Quick one: melting point for `COc1cc2c(cc1OC)CN(CCN(C)Cc1ccc(NC(=O)c3cccc4c(=O)c5cccc(OC)c5[nH]c34)cc1)CC2` ?
202 °C

Quick check: melting point of `COc1ccc(-c2nc(C)cc(OCCN3CCN(C(c4ccccc4)c4ccccc4)CC3)n2)cc1` ?
132 to 133 °C

Request the reported melting point associated with CCCc1c(OCCCOc2cccc3c2CCCC3)ccc2c1OC(CCC(=O)OC)(CCC(=O)N1CCCC1)CC2=O (configuration not stated)
106 to 107 °C

Look up melting point for this compound: CC(=O)NCC1OC(=O)N2c3ccc(-c4ccccc4)cc3CC12 (configuration not stated)
181 to 183 °C
